Every entry's value here was drawn from PubChem BioAssay.

Experimental protocol: JHH-DIPG-1 glioma cell viability, MIPE5.0 library, CellTiter-Glo luminescence, qHTS (AID 1347067);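 also: cells exposed to compound for 48 hours before readout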
Reported conditions: JHH-DIPG-1 glioma viability, CellTiter-Glo ATP luminescence
Inconclusive results are not listed. Activity calls are given as the source filed them. The limit is not given here; nearly all actives have AC50 up to about 26 µM. Bridge positions count the residues as written; N and C are the ends. Square brackets hold non-standard residues; d marks the D form. Peptide text beside a SMILES is read from it. * marks the point of attachment. X2 = CCC(C)C(N)C1=NC(C(=O)*)CS1; dOrn = NCCC[C@@H](N)C(=O)O
Assay metric: AC50

>  <Molecule>
Cc1cc(C)cc(NC(=O)Cc2ccc(OC(C)(C)C(=O)O)cc2)c1

>  <Endpoint result>
inactive

$$$$
>  <Molecule>
COc1cc(Nc2ncc(F)c(Nc3ccc4c(n3)NC(=O)C(C)(C)O4)n2)cc(OC)c1OC

>  <Endpoint result>
5.9 µM (active)

$$$$
>  <Molecule>
COCCNCCCn1c(C(=O)CF)c(-c2ccc(C)cc2)c2c(N)ncnc21

>  <Endpoint result>
inactive

$$$$
>  <Molecule>
c1nc2nc(Nc3ccc(N4CCOCC4)cc3)nc(NC3CCCCC3)c2[nH]1

>  <Endpoint result>
5.9 µM (active)

$$$$
>  <Molecule>
CCCCC(F)(F)[C@@]1(O)CC[C@H]2[C@@H](CC(=O)[C@@H]2CCCCCCC(=O)O)O1

>  <Endpoint result>
inactive

$$$$
>  <Molecule>
C=C1C(=O)[C@@]23C(CC[C@@H]1[C@H]2O)[C@@]12CO[C@]3(O)[C@@H](O)[C@@H]1C(C)(C)CC[C@@H]2O (some centres not stated)

>  <Endpoint result>
5.9 µM (active)

$$$$
>  <Molecule>
CCC(C)C(N)C1=NC(C(=O)N[C@@H](CC(C)C)C(=O)N[C@H](CCC(=O)O)C(=O)N[C@H](C(=O)N[C@H]2CCCCNC(=O)[C@H](CC(N)=O)NC(=O)[C@@H](CC(=O)O)NC(=O)[C@H](Cc3cnc[nH]3)NC(=O)[C@@H](Cc3ccccc3)NC(=O)[C@H]([C@@H](C)CC)NC(=O)[C@@H](CCCN)NC2=O)[C@@H](C)CC)CS1 (some centres not stated) (X2-L[dE]IK[dOrn]I[dF]H[dD]N; lactam 4-C)

>  <Endpoint result>
inactive

$$$$
>  <Molecule>
COc1ccc(C(=O)N2CCN(c3ccc4c(c3)CCC(=O)N4)CC2)cc1OC

>  <Endpoint result>
inactive

$$$$
>  <Molecule>
CC(C)(O)CCc1ccc(OCc2cc(-c3cccc(OC(F)F)c3)c3ncccc3c2)cc1

>  <Endpoint result>
23.5 µM (active)

$$$$
>  <Molecule>
Cc1ccccc1C(C(=O)NC1CCCCC1)N(C(=O)Cn1ccnc1C)c1cccc(F)c1 (configuration not stated)

>  <Endpoint result>
inactive

$$$$
>  <Molecule>
O=C(/C=C/c1cccnc1)NCCCCC1CCN(C(=O)c2ccccc2)CC1

>  <Endpoint result>
0.00417 µM (active)

$$$$
>  <Molecule>
COc1cc(Nc2ncc3c(n2)-c2ccc(Cl)cc2C(c2c(F)cccc2OC)=NC3)ccc1C(=O)O

>  <Endpoint result>
8.33 µM (active)

$$$$
>  <Molecule>
CCC(C(=O)O)C1CCC(C)C(C(C)C(O)C(C)C(=O)C(CC)C2OC3(C=CC(O)[C@@]4(CC[C@](C)(C5CC[C@@](O)(CC)C(C)O5)O4)O3)C(C)CC2C)O1 (some centres not stated)

>  <Endpoint result>
0.934 µM (active)

$$$$
>  <Molecule>
CCOC(=O)N1c2ccc(C(F)(F)F)cc2[C@@H](N(Cc2cc(C(F)(F)F)cc(C(F)(F)F)c2)C(=O)OC)C[C@H]1CC

>  <Endpoint result>
inactive

$$$$
>  <Molecule>
CCOc1cc(C(=O)N2CCC(N3CCN(C)CC3)CC2)ccc1Nc1ncc2c(n1)N(C1CCCC1)c1ccccc1C(=O)N2C

>  <Endpoint result>
26.3 µM (active)

$$$$
>  <Molecule>
COc1cc2c(cc1O)CCN[C@]21CS[C@@H]2c3c(OC(C)=O)c(C)c4c(c3[C@H](COC1=O)N1[C@@H]2[C@H]2c3c(cc(C)c(OC)c3O)C[C@@H]([C@@H]1O)N2C)OCO4

>  <Endpoint result>
0.000679 µM (active)

$$$$
>  <Molecule>
CNC(=O)c1ccc(Nc2ncc(C(F)(F)F)c(NCc3nccnc3N(C)S(C)(=O)=O)n2)cc1

>  <Endpoint result>
4.68 µM (active)

$$$$
>  <Molecule>
CN(Cc1ccccc1)C(=O)c1ccc(S(=O)(=O)Nc2ccccc2)cc1

>  <Endpoint result>
inactive

$$$$
>  <Molecule>
CCN1C(=O)CNc2ncc(-c3ccc(-c4ncn[nH]4)nc3C)nc21

>  <Endpoint result>
5.9 µM (active)

$$$$
>  <Molecule>
NCC(=O)Nc1ccc(-n2nc(C(F)(F)F)cc2-c2ccc3c(ccc4ccccc43)c2)cc1

>  <Endpoint result>
20.9 µM (active)

$$$$
>  <Molecule>
COc1ccc(/C=C\c2cc(OC)c(OC)c(OC)c2)cc1NC(=O)[C@H](N)CO

>  <Endpoint result>
0.235 µM (active)

$$$$
>  <Molecule>
C[C@]12CC[C@@H]3c4ccc(O)cc4CC[C@H]3[C@@H]1[C@@H](O)[C@@H](O)[C@@H]2O

>  <Endpoint result>
inactive

$$$$
